The compounds listed here are annotated with their Kd.
target: Scrib PDZ-2 domain (Homo sapiens); construct: ROC curves of DomPep prediction for the three Scrib PDZ-1/2/3 domains; assay: In-solution fluorescence polarization binding of peptides to Scrib PDZ2; settings: Kd value of 100 µM applied as binding cutoff, NB without definition, read-out: Kd (µM) PDZ2
Sequence (Q14160 862-950 limits assumed): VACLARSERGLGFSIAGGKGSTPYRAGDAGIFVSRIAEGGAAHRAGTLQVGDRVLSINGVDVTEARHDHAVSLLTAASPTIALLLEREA
Residues, ends and D or L forms follow the SMILES beside them.

Some solved cases for reference:
{"compound": "CC[C@H](C)[C@H](NC(=O)[C@H](CC(C)C)NC(=O)[C@H](CCC(N)=O)NC(=O)[C@H](CCSC)NC(=O)[C@H](CC(N)=O)NC(=O)[C@H](Cc1ccccc1)NC(=O)[C@@H](N)CO)C(=O)N[C@@H](CO)C(=O)N[C@@H](CCC(N)=O)C(=O)N[C@H](C(=O)O)C(C)C [FAM126B] (H-SFNMQLISQV-OH)", "experimentalResult": "> 100 µM"}
{"compound": "CC(C)C[C@H](NC(=O)[C@H](CC(C)C)NC(=O)[C@@H](NC(=O)CNC(=O)[C@H](Cc1ccc(O)cc1)NC(=O)[C@H](CC(C)C)NC(=O)[C@H](CCC(N)=O)NC(=O)[C@H](C)NC(=O)[C@@H](N)CCCCN)[C@@H](C)O)C(=O)N[C@@H](CC(N)=O)C(=O)O [BEGAIN] (H-KAQLYGTLLN-OH; N-terminus and C-terminus assumed)", "experimentalResult": "> 100 µM"}
{"compound": "CC[C@H](C)[C@H](NC(=O)[C@H](CC(=O)O)NC(=O)[C@H](CC(N)=O)NC(=O)[C@H](CC(C)C)NC(=O)[C@H](C)NC(=O)[C@H](CC(N)=O)NC(=O)[C@@H](N)CC(=O)O)C(=O)N[C@H](C(=O)N[C@@H](CO)C(=O)N[C@@H](CC(C)C)C(=O)O)[C@@H](C)O [TPM2] (H-DNALNDITSL-OH)", "experimentalResult": "> 100 µM"}
{"compound": "CC[C@H](C)[C@H](NC(=O)[C@H](CO)NC(=O)[C@H](CO)NC(=O)[C@H](CCC(=O)O)NC(=O)[C@H](C)NC(=O)[C@H](CO)NC(=O)[C@H](C)NC(=O)[C@@H](NC(=O)[C@H](CC(=O)O)NC(=O)[C@@H](N)C(C)C)[C@@H](C)CC)C(=O)O [TANK] (H-VDIASAESSI-OH)", "experimentalResult": "> 100 µM"}
{"compound": "CC(C)C[C@H](NC(=O)[C@H](CC(N)=O)NC(=O)[C@@H](NC(=O)[C@H](CCC(=O)O)NC(=O)[C@H](CC(=O)O)NC(=O)[C@H](Cc1c[nH]c2ccccc12)NC(=O)[C@H](C)NC(=O)[C@@H]1CCCN1C(=O)[C@H](CC(=O)O)NC(=O)[C@@H](N)CC(N)=O)[C@@H](C)O)C(=O)O [b-PIX] (H-NDPAWDETNL-OH)", "experimentalResult": "16.8 µM"}
{"compound": "CSCC[C@H](NC(=O)[C@H](Cc1ccccc1)NC(=O)[C@H](C)NC(=O)[C@@H](N)Cc1c[nH]c2ccccc12)C(=O)N[C@@H](CCCNC(=N)N)C(=O)N[C@@H](Cc1ccc(O)cc1)C(=O)N[C@@H](CCCNC(=N)N)C(=O)N[C@@H](CCC(N)=O)C(=O)N[C@@H](CCC(N)=O)C(=O)N[C@@H](CC(C)C)C(=O)O [SYNJ2BP] (H-WAFMRYRQQL-OH)", "experimentalResult": "> 100 µM"}
{"compound": "CSCC[C@H](N)C(=O)N[C@@H](CCC(=O)O)C(=O)N[C@@H](CCCNC(=N)N)C(=O)N[C@@H](CC(C)C)C(=O)N[C@@H](CCCNC(=N)N)C(=O)N[C@H](C(=O)N[C@@H](CCC(=O)O)C(=O)N[C@H](C(=O)N[C@@H](CC(=O)O)C(=O)N[C@H](C(=O)O)C(C)C)[C@@H](C)O)C(C)C [ARHGEF16] (H-MERLRVETDV-OH)", "experimentalResult": "7.7 µM"}
{"compound": "CC(C)C[C@H](NC(=O)[C@H](CCCNC(=N)N)NC(=O)[C@@H]1CCCN1C(=O)[C@H](Cc1c[nH]cn1)NC(=O)[C@H](CO)NC(=O)[C@@H]1CCCN1)C(=O)N[C@@H](CCC(N)=O)C(=O)N[C@H](C(=O)N[C@@H](Cc1c[nH]cn1)C(=O)N[C@H](C(=O)O)C(C)C)[C@@H](C)O [KIRREL2] (H-PSHPRLQTHV-OH)", "experimentalResult": "> 100 µM"}
{"compound": "CC[C@H](C)[C@H](NC(=O)[C@@H]1CCCN1C(=O)[C@H](Cc1c[nH]cn1)NC(=O)[C@@H](NC(=O)[C@@H](N)Cc1ccccc1)C(C)C)C(=O)N[C@@H](CC(C)C)C(=O)N[C@@H](CCC(N)=O)C(=O)N[C@@H](CO)C(=O)N[C@@H](C)C(=O)N[C@H](C(=O)O)C(C)C [PRKCA] (H-FVHPILQSAV-OH)", "experimentalResult": "46 µM"}
{"compound": "CC(C)C[C@H](NC(=O)[C@H](Cc1ccc(O)cc1)NC(=O)[C@H](CO)NC(=O)CNC(=O)[C@H](CO)NC(=O)[C@@H](N)Cc1c[nH]cn1)C(=O)N[C@H](C(=O)N[C@H](C(=O)N[C@@H](CO)C(=O)N[C@H](C(=O)O)C(C)C)[C@@H](C)O)C(C)C [APC] (H-HSGSYLVTSV-OH)", "experimentalResult": "9.5 µM"}

I am curious: what Kd value has been reported for CC(C)C[C@H](NC(=O)[C@H](CCC(=O)O)NC(=O)[C@H](CCCNC(=N)N)NC(=O)[C@H](Cc1c[nH]c2ccccc12)NC(=O)[C@@H]1CCCN1C(=O)[C@@H]1CCCN1C(=O)[C@H](CC(=O)O)NC(=O)CNC(=O)[C@H](CCCNC(=N)N)NC(=O)[C@@H]1CCCN1)C(=O)O [C19orf57] (H-PRGDPPWREL-OH; N-terminus and C-terminus assumed) ?
> 100 µM

Look up Kd for this compound: CC(C)C[C@H](NC(=O)[C@H](CCC(=O)O)NC(=O)[C@H](CCC(=O)O)NC(=O)[C@H](CCCNC(=N)N)NC(=O)[C@@H](NC(=O)[C@H](C)NC(=O)[C@H](CO)NC(=O)[C@@H](NC(=O)[C@H](CCCCN)NC(=O)[C@@H](N)CCC(=O)O)C(C)C)[C@@H](C)O)C(=O)O (H-EKVSATREEL-OH)
> 100 µM

###

target: Scrib PDZ-3 domain (Homo sapiens); construct: ROC curves of DomPep prediction for the three Scrib PDZ-1/2/3 domains; test: In-solution fluorescence polarization binding of peptides to Scrib PDZ3; settings: Kd value of 100 µM applied as binding cutoff, NB without definition
Sequence (Q14160 1004-1093 limits assumed): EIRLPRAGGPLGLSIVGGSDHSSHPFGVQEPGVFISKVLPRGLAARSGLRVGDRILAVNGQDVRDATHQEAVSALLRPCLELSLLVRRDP
Residues, ends and D or L forms follow the SMILES beside them.
recordedEndpoint: Kd

Example entries begin here.
{"molecule": "CC[C@H](C)[C@H](NC(=O)CNC(=O)[C@@H](NC(=O)CNC(=O)[C@H](Cc1c[nH]cn1)NC(=O)[C@H](CC(C)C)NC(=O)[C@H](Cc1c[nH]cn1)NC(=O)[C@@H](N)CC(C)C)[C@@H](C)O)C(=O)N[C@@H](CCC(N)=O)C(=O)N[C@H](C(=O)O)C(C)C [EPHA7] (H-LHLHGTGIQV-OH; N-terminus and C-terminus assumed)", "targetEntity": "Scrib PDZ-3 domain (Homo sapiens)", "Kd": "> 100 µM"}
{"molecule": "CSCC[C@H](NC(=O)[C@H](CC(C)C)NC(=O)[C@@H](NC(=O)[C@H](CS)NC(=O)[C@H](CCCCN)NC(=O)CNC(=O)[C@H](CCCCN)NC(=O)[C@@H](NC(=O)[C@H](CCCNC(=N)N)NC(=O)[C@@H](N)CC(=O)O)C(C)C)[C@@H](C)O)C(=O)O [DIRAS1] (H-DRVKGKCTLM-OH; N-terminus and C-terminus assumed)", "targetEntity": "Scrib PDZ-3 domain (Homo sapiens)", "Kd": "> 100 µM"}
{"molecule": "CC(C)[C@H](NC(=O)[C@H](CO)NC(=O)[C@H](CCCCN)NC(=O)[C@H](CCCCN)NC(=O)[C@H](CO)NC(=O)[C@H](CCCCN)NC(=O)[C@H](CCCCN)NC(=O)[C@H](CCCCN)NC(=O)[C@H](CCC(=O)O)NC(=O)[C@H](C)N)C(=O)O [PSMA8] (H-AEKKKSKKSV-OH)", "targetEntity": "Scrib PDZ-3 domain (Homo sapiens)", "Kd": "177 µM"}
{"molecule": "CC[C@H](C)[C@H](NC(=O)[C@@H](N)CC(N)=O)C(=O)NCC(=O)N[C@@H](CO)C(=O)N[C@@H](CCC(N)=O)C(=O)NCC(=O)N[C@@H](CO)C(=O)N[C@H](C(=O)N[C@@H](CC(=O)O)C(=O)N[C@@H](Cc1ccc(O)cc1)C(=O)O)[C@@H](C)O [TRIM21] (H-NIGSQGSTDY-OH)", "targetEntity": "Scrib PDZ-3 domain (Homo sapiens)", "Kd": "116 µM"}

Which measured Kd belongs to CC(C)C[C@H](NC(=O)[C@@H](NC(=O)[C@H](CCCCN)NC(=O)[C@H](CC(C)C)NC(=O)[C@H](Cc1ccccc1)NC(=O)[C@H](CCCCN)NC(=O)[C@H](CCC(=O)O)NC(=O)[C@H](Cc1ccccc1)NC(=O)[C@H](CC(=O)O)NC(=O)[C@@H](N)CCC(N)=O)[C@@H](C)O)C(=O)O [MTERFD1] (H-QDFEKFLKTL-OH; N-terminus and C-terminus assumed) , tested on Scrib PDZ-3 domain (Homo sapiens)?
> 100 µM

For Scrib PDZ-3 domain (Homo sapiens), provide Kd of CC(C)C[C@H](NC(=O)[C@H](CCCCN)NC(=O)[C@H](CO)NC(=O)[C@H](CCC(=O)O)NC(=O)[C@H](CO)NC(=O)[C@@H](NC(=O)[C@H](CCC(N)=O)NC(=O)[C@@H]1CCCN1C(=O)[C@H](CCCCN)NC(=O)[C@@H](N)C(C)C)C(C)C)C(=O)O [PTE1] (H-VKPQVSESKL-OH; N-terminus and C-terminus assumed) please.
> 100 µM

Short answer please: Kd, Scrib PDZ-3 domain (Homo sapiens), entry CC[C@H](C)[C@H](NC(=O)[C@@H]1CCCN1C(=O)[C@@H]1CCCN1C(=O)[C@@H](NC(=O)[C@H](CO)NC(=O)[C@H](Cc1ccc(O)cc1)NC(=O)[C@H](CC(C)C)NC(=O)[C@@H](NC(=O)[C@@H](NC(=O)[C@@H](N)CO)C(C)C)C(C)C)[C@@H](C)O)C(=O)O [FLT1] (H-SVVLYSTPPI-OH; N-terminus and C-terminus assumed)
> 100 µM

Scrib PDZ-3 domain (Homo sapiens) / Kd / CC(C)C[C@H](NC(=O)[C@H](CCC(=O)O)NC(=O)[C@H](CCCNC(=N)N)NC(=O)[C@H](Cc1c[nH]c2ccccc12)NC(=O)[C@@H]1CCCN1C(=O)[C@@H]1CCCN1C(=O)[C@H](CC(=O)O)NC(=O)CNC(=O)[C@H](CCCNC(=N)N)NC(=O)[C@@H]1CCCN1)C(=O)O [C19orf57] (H-PRGDPPWREL-OH; N-terminus and C-terminus assumed) : value?
> 100 µM
